Biological target: UniProt G1SFD9
Sequence (G1SFD9 1-524): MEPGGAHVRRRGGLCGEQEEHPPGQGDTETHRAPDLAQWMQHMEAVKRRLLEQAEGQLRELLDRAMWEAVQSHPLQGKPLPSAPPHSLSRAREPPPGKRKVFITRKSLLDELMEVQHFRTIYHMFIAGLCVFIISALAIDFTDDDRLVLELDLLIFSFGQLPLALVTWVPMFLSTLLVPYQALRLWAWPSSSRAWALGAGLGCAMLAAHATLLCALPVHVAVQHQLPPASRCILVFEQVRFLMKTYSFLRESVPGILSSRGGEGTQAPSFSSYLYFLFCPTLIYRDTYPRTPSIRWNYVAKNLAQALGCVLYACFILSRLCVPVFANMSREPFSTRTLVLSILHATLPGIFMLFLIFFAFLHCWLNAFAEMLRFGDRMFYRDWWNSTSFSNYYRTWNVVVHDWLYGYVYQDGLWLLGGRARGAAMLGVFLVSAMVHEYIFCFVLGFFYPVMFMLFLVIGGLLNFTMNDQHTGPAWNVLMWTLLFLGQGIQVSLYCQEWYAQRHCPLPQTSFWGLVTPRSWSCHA
pIC50: −log10 of the molar value. Where a name gives a salt, the structure may show the parent alone.
reported_property: pIC50

A = Cc1ccc(OCCCCCC(C)(C)C(=O)Nc2c(C)cc(C)c3c2OC(C)(C)C3)cc1 [Ex. 62]
B = Cc1cc(C)c(NC(=O)C(C)(C)CCCCCCBr)c2c1CC(C)(C)O2 [Ex. 38]
Asked: Between A and B , which one has the lower reported pIC50 value? Which one? Tell me its label.
Given back: B

I = Cc1cc(C)c(NC(=O)C(C)(C)CCCCOc2ccc(C(C)(C)C)cc2)c2c1CC(C)(C)O2 [Ex. 58]
II = Cc1cc2nc(-c3ccccc3)oc2c(NC(=O)NCC2(c3ccccc3)CCCC2)c1C [Ex. 13]
III = Cc1cc(C)c(NC(=O)C(C)(C)CCCCCOc2ccc(C(C)C)cc2)c2c1CC(C)(C)O2 [Ex. 65]
IV = Cc1cc(C)c(NC(=O)C(C)(C)CCCCCCOCC(C)(C)C)c2c1CC(C)(C)O2 [Ex. 50]
Asked: List from greatest to least pIC50. Return the labels ranked in the requested order, please.
Given back: IV, III, I, II

I = Cc1cc(C)c(NC(=O)C(C)(C)CCCCCCNCc2ccc(Cl)cc2)c2c1CC(C)(C)O2 [Ex. 73 (HCl salt)]
II = CCCCCCCCCCC(C)(C)C(=O)Nc1c(C)c([N+](=O)[O-])c(C)c2c1OC(C)(C)C2 [Ex. 6]
III = Cc1ccc(OCCCCCC(C)(C)C(=O)Nc2c(C)cc(C)c3c2OC(C)(C)C3)c(C)c1 [Ex. 64]
IV = Cc1cc(C)c(NC(=O)C(C)(C)CCCCCCOc2ccc(F)cc2)c2c1CC(C)(C)O2 [Ex. 70]
Asked: List from greatest to least pIC50. Return the labels ranked in the requested order, please.
Given back: II, IV, I, III
(II: 7.72, IV: 6.96, I: 6.47, III: 6.04)

I = Cc1cc(C)c(NC(=O)C(C)(C)CCCCCCN(C)Cc2ccccc2)c2c1CC(C)(C)O2 [Ex. 74 (HCl salt)]
II = CCCCCCCCCCCCCCCC(=O)Nc1c(C)c(Cl)c(C)c2c1OC(C)(C)C2 [Ex. 83]
Asked: Between I and II , which one has the lower reported pIC50 value? Which one? Tell me its label.
Given back: I
